- protocol.summary: yeast display, Sf9 membrane polyspecificity reagent, FACS + sequencing; frameworks hold sequencing errors
measure.name: polyreactivity (PSR sort gate)

[[record]]
seq_string = "QVQLVESGGGLVQAGGSLRLSCAASGSTFYWNGMGWYRQAPGKERELVAAITKSGSRTYYADSVKGRFTISRDNAKNTVYLQMNSLKPEDTAVYYCAAVNYIYTGGGTYYYWGQGTQVTVSS"
measure_name = "polyreactivity (PSR sort gate)"
reported = "high polyreactivity"

[[record]]
seq_string = "QVQLVESGGGLVQAGGSLRLSCAASGSTFWANAMGWYRQAPGKEREIVATISWSDGSTYYAASVKGRFTISRDNAKNTVYLQRNSLNPEDTAVYYCASDVVRFFTYKYDDWGQGTQVTVSS"
measure_name = "polyreactivity (PSR sort gate)"
reported = "low polyreactivity"

[[record]]
seq_string = "QVQLVESGGGLVQAGGSLRLSCAASGITFVHYAMGWYRQAPGKERELVAAISSGGGSTYYADSVKGRFTLSRDHAKNTGNLQMHSLNPEDTAVDNCAAYVLPYGEYDYWGQGTQVTVSS"
measure_name = "polyreactivity (PSR sort gate)"
reported = "low polyreactivity"

[[record]]
seq_string = "QVQLVESGGGLVQAGGSLLLSCAASGRTFYYNAMGWYRQAPGKERELVAAISRGGNTNYADSVKGRFTISRDNAKNTVYLQMNSLKPEDTAVYYCSTYHRYKFYYWGQGTQVTVSS"
measure_name = "polyreactivity (PSR sort gate)"
reported = "high polyreactivity"


For reference, reported polyreactivity (PSR sort gate) for QVQLVESGGGLVQAGGSLRLSCAASGRTFVVNAMGGYRQAPGKERELVAAITYSGDTTYYADSVKGRFTISRDNAKNTVYLQMNSLKPEDTAVYYCAADTGVVSPPAGLLIGPFDSWGQGTQVTVSS stands at low polyreactivity

For reference, reported polyreactivity (PSR sort gate) for QVQLVESGGALVQAGGSLRLICAASGRIFPRNVMGWYRQAPGKERELVAAISSRGTRTYYADSVKGRFTISRDNAKNTVYLQMYSLKPEDTAVYYCAADGPYEGYDYWGQGTQVTVSS stands at high polyreactivity

For reference, reported polyreactivity (PSR sort gate) for QVQLVESGGGLVQAGGSLRLSCAASGLIFRAYAMGWYRQAPGKERELVAAITRSGGSTYYADSVKGRFTISRDNAKNTVDLQMNSLKPEDTAVYYCATAQWVGYWDDYWGQGTQVTVSS stands at high polyreactivity

For reference, reported polyreactivity (PSR sort gate) for QVQLVESGGGLVQAGGSLRLSCAASGLTFGYYAMGWYRQAPGKERELVAAISQSGGSTYYADSVKGRFTISRDNAKNTVYLQMNSLKPEDTAVYYCATRRYGYRYDQPYSNDYWGQGTQVTVSS stands at low polyreactivity

For reference, reported polyreactivity (PSR sort gate) for QVQLVESGGGLVQAVASLRLSCAASGRIFGPYAMGWDRQAPGKERELVASITRSGGRTYYADSVKGRFTISRDYAKNTVYLQMNSLKPDDTAVYYCAAGGFSKSDYYWGQGTQVTVSS stands at high polyreactivity

For reference, reported polyreactivity (PSR sort gate) for QVQLVESGGGLVQAGGSLRLSCAASGFIFKFYAMGWYRQAHGKERELVAAISKSGGRTYYADSVKGRFTISRDNAKNTVYLQMNSLKPEDTAVYYCNAPSVGAAFDYWGQGTQVTVSS stands at high polyreactivity

For reference, reported polyreactivity (PSR sort gate) for QVQLVESGGGLVQAGGSLRLSCAASGFTFDRYAMGWYRQAPGKERELVAAISVSGGRTYYADSVKGRFTISRDNAKNTVYLQMNSLKPEDTAVYYCAARDHSRSRFGYDYLGQGTQVTVSS stands at high polyreactivity
